biological target: UniProt:P0C6X7; experiment: SARS-CoV PLpro inhibitor potency, dose response, counter-screen for SARS-CoV 3CLpro inhibitor project, biochemical, luminescence (AID 1944); conditions: SARS-CoV PLpro enzymatic assay
Active and inactive are the calls of the source. How the calls were made is not given here.
measured attribute: IC50

[[record]]
molecule = "O=Cc1cn(Cc2ccccc2)nc1-c1cccnc1"
recorded_value = "> 59.6 µM (inactive)"

[[record]]
molecule = "O=C(N/N=C\\c1c(O)ccc2ccccc12)c1cncc(Br)c1"
recorded_value = "8.21 µM"

[[record]]
molecule = "O=c1[nH]c(=O)n(-c2ccccc2F)c(O)c1/C=C1\\C=Nc2ccccc21"
recorded_value = "> 59.6 µM (inactive)"

[[record]]
molecule = "Cc1cc(NC(=O)COC(=O)C(Nc2ccc(C(F)(F)F)cc2Cl)C(C)C)no1 (centres undefined)"
recorded_value = "> 59.6 µM (inactive)"

[[record]]
molecule = "Cc1cccc(N2CCN(C(=O)c3cc(=O)[nH]c4ccccc34)CC2)c1C"
recorded_value = "> 59.6 µM (inactive)"


Recorded result, Cc1ccc(C(=O)c2c3ccc(C(F)(F)F)cc3[n+]([O-])n2CCC(N)=O)cc1 , IC50: > 59.6 µM (inactive)

Recorded result, COc1ccc(N(C(=O)Cn2nnc3ccccc32)C2(C(=O)NC3CCCC3)CCCCC2)cc1 , IC50: > 59.6 µM (inactive)

Recorded result, O=C(O)c1ccc2ncsc2c1 , IC50: 7.39 µM

Recorded result, Cc1ccc2[nH]c3c(c2c1)CN(C(=O)CN1c2ccc(F)cc2CCC1C)CC3 (centres undefined) , IC50: > 59.6 µM (inactive)

Recorded result, O=C(Cc1ccc(Cl)c(Cl)c1)Nc1cccnc1 , IC50: inactive

Recorded result, COc1ccc(C(=O)Oc2cccnc2)cc1 , IC50: > 59.6 µM (inactive)

Recorded result, Cc1cc(C)n(C(=O)c2ccc(C)c(Br)c2)n1 , IC50: inactive

Recorded result, Cc1ccc(/C=C/C(=O)c2cc(Br)ccc2OC(=O)c2ccco2)cc1 , IC50: > 59.6 µM (inactive)

Recorded result, Cc1ccc(C(=O)Oc2ccc3c(c2)ncn3C)cc1 , IC50: 0.577 µM

Recorded result, COc1ccc2cc(C3(C)NC(=O)N(CC(=O)NCc4ccco4)C3=O)ccc2c1 (centres undefined) , IC50: > 59.6 µM (inactive)

Recorded result, Cn1cnc2cc(NC(=O)c3ccc(Cl)cc3)ccc21 , IC50: 3.28 µM

###

target: UniProtKB P0C6X7; test: SARS-CoV PLpro inhibitor potency, dose response, counter-screen for SARS-CoV 3CLpro inhibitor project, biochemical, luminescence (AID 1944); conditions: SARS-CoV PLpro enzymatic assay
The source made the active and inactive calls. No rule for the calls is given here.
measured attribute: IC50

Check out these entries, answers already filled in.
[[record]]
compound = "Cc1cc(C)c(N(C(=O)Cn2nnc3ccccc32)C(C(=O)NC(C)(C)C)c2ccsc2)c(C)c1 (stereo unspecified)"
recorded_value = "> 59.6 µM (inactive)"

[[record]]
compound = "COc1cc(/C=N\\NC(=O)Cn2nnc3ccccc32)cc(OC)c1OC"
recorded_value = "> 59.6 µM (inactive)"

[[record]]
compound = "CC(=O)NC1C(=O)N(CCN2CCOCC2)c2ccc(Br)cc21 (stereo unspecified)"
recorded_value = "> 59.6 µM (inactive)"

[[record]]
compound = "CCc1cc(=O)oc2cc(OC(=O)c3ccco3)ccc12"
recorded_value = "> 59.6 µM (inactive)"

[[record]]
compound = "CCc1cccc(CC)c1N(COC)C(=O)Cn1nnc2ccccc21"
recorded_value = "> 59.6 µM (inactive)"


Recorded result, COc1ccccc1/C=C/C(=O)c1cc(Br)ccc1OC(=O)c1ccco1 , IC50: inactive

Recorded result, CC1CCC2C(=O)N(c3cc(Cl)ccc3OC(=O)c3ccco3)C(=O)C2C1 (stereo unspecified) , IC50: > 59.6 µM (inactive)

Recorded result, COc1cc(C2CC(c3cccs3)=NN2C(=O)CCl)ccc1OC(F)F (stereo unspecified) , IC50: > 59.6 µM (inactive)

Recorded result, NC(=O)CCn1c(C(=O)c2cc(Cl)c(N)c(Cl)c2)c2ccccc2[n+]1[O-] , IC50: > 59.6 µM (inactive)

Recorded result, COc1cccc(/C=N/NC(=S)Nc2cccnc2)c1 , IC50: inactive

Recorded result, COc1cc2c(cc1OC)C(c1cc(Br)ccc1F)N(C(=O)CCl)CC2 (stereo unspecified) , IC50: > 59.6 µM (inactive)
